Entry source: patent US9353089B2

Would you mind telling me the reported IC50 of each entry?
# Test system: Plasmodium falciparum 3D7 (CQ-sensitive)
# Assay method text: In vitro antimalarial assay (malaria SYBR Green I-based fluorescence, MSF), 3D7
# Type: cell-based
# Assay conditions: 3D7, Table 10, read-out: Pf3D7 IC50
Give bare numbers, in nM.

COc1ccc(C2(c3ccc(OC)cc3)NC(=N)N(Cc3ccccc3)C2=O)cc1 [Example 162]; 855
COc1ccc(C2(c3ccc(OC)cc3)NC(=N)N(C3CCN(C)CC3)C2=O)cc1 [Example 166]; 697

Okay, next one:
I'd like to know its IC50. The molecule in question is COc1ccc(C2(c3ccc(OC)cc3)NC(=N)N(C3CCC3)C2=O)cc1 [Example 204]
722

----------
# System under test: recombinant human Cathepsin D (Homo sapiens (Human), UniProt P07339)
# Sequence (P07339 65-412): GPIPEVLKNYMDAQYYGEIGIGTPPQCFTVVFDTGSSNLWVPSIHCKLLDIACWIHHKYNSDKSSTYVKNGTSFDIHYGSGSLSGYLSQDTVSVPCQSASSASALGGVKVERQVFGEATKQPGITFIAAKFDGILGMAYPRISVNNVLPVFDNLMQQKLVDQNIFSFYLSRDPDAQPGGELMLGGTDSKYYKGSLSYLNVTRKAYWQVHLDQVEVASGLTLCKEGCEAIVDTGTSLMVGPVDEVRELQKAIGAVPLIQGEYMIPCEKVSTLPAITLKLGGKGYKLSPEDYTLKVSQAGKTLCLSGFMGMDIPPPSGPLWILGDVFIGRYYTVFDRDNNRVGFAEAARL
# Assay method text: Cathepsin D enzyme inhibition FRET assay
# Assay conditions: Table 8; read-out: CatD IC50
Would you mind telling me the reported IC50 of each entry?

// solved cases for IC50 follow
N=C1NC(c2ccccc2)(c2cccc(-c3cccnc3)c2)C(=O)N1C1CCCCC1 (stereo not drawn); > 10 µM
COc1ccc(C2(c3ccc(OC)cc3)NC(=N)N(C3CCOCC3)C2=O)cc1; > 10 µM

Okay, next one:
I'd like to know its IC50. The compound in question is COc1ccc(C2(c3cccc(-c4cccnc4)c3)NC(=N)N(C3CCCCC3)C2=O)cc1 (stereo not drawn)
~14.9 µM

----------
# Test system: Plasmodium falciparum 3D7 (CQ-sensitive)
# Assay method text: In vitro antimalarial assay (malaria SYBR Green I-based fluorescence, MSF), 3D7
# Assay type: cell-based
# Assay conditions: 3D7, Table 11, read-out: Pf 3D7 IC50
Property label: IC50 (nM)
Numbers only, in nM.

// solved cases for IC50 follow
N=C1NC(c2ccc(OC(F)(F)F)cc2)(c2ccc(OC(F)(F)F)cc2)C(=O)N1C1CCCCC1 [Example 201]; 2200
N=C1NC(c2ccccc2)(c2cccc(Oc3ccccc3)c2)C(=O)N1C1CCCCC1 (stereo not shown) [Example 238]; 424
Cc1cccc(C2(c3cccc(C)c3)NC(=N)N(C3CCCCC3)C2=O)c1 [Example 237]; 533
N=C1NC(c2cccc(-c3cccnc3)c2)(c2cccc(-c3cccnc3)c2)C(=O)N1C1CCCCC1 [Example 269]; 725
COc1ccc(C2(c3cccc(-c4ccccc4)c3)NC(=N)N(C3CCCCC3)C2=O)cc1 (stereo not shown) [Example 177]; 1490
N=C1NC(c2cccc(Cl)c2)(c2cccc(Cl)c2)C(=O)N1C1CCCCC1 [Example 267]; 1060

Hey, quick one: what's IC50 for each of these?
1. COc1ccc(C2(c3ccccc3)NC(=N)N(C3CCCCC3)C2=O)cc1 (stereo not shown) [Example 141]
2. Cc1ccc(C2(c3ccc(C)cc3)NC(=N)N(C3CCCCC3)C2=O)cc1 [Example 156]

533
1260

Hey, quick one: what's IC50 for each of these?
1. CCOc1ccc(C2(c3ccc(OCC)cc3)NC(=N)N(C3CCCCC3)C2=O)cc1 [Example 157]
2. COc1cccc(C2(c3ccccc3)NC(=N)N(C3CCCCC3)C2=O)c1 (stereo not shown) [Example 153]

1. 466
2. 917

----------
# System under test: recombinant human BACE1 (Homo sapiens)
# Sequence (P56817 46-501 limits assumed): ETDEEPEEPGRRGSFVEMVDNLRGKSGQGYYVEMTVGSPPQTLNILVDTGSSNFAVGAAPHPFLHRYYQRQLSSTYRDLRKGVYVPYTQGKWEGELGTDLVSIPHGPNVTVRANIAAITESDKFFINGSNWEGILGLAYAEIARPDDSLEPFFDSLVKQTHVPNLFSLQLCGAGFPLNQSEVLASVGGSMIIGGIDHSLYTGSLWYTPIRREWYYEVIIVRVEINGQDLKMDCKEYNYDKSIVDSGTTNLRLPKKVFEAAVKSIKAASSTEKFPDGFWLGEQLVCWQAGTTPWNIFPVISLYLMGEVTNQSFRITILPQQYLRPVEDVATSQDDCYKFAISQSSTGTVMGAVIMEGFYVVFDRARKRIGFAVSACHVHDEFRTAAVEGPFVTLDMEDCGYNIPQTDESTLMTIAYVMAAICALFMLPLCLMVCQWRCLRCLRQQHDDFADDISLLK
# Assay method text: β-Secretase (BACE1) enzyme inhibition FRET assay
# Type: biochemical
# Assay conditions: Table 13; read-out: BACE1 IC50
Property label: IC50

// solved cases for IC50 follow
COc1ccc(C2(c3ccc(OC)cc3)NC(=N)N(C3CCOCC3)C2=O)cc1 [Example 176]; ~10.1 µM
COc1cccc(-c2cccc(C3(C4CC4)NC(=N)N(C4CCCCC4)C3=O)c2)c1 (centres unmarked) [Example 328]; ~6.8 µM

Hey, quick one: what's IC50 for each of these?
1. COc1ccc(C2(c3cccc(-c4cccnc4)c3)NC(=N)N(C3CCCCC3)C2=O)cc1 (centres unmarked) [Example 171]
2. COc1ccc(C2(c3ccc(OC)cc3)NC(=N)N(C3CCN(C(C)=O)CC3)C2=O)cc1 [Example 310]
3. N=C1NC(c2cccc(-c3cccnc3)c2)(C2CC2)C(=O)N1C1CCOCC1 (centres unmarked) [Example 487]

~7.15 µM
~2.6 µM
8.65 µM

Hey, quick one: what's IC50 for each of these?
1. COc1ccc(C2(C3CC3)NC(=N)N(C3CCOCC3)C2=O)cc1-c1cccc(C#N)c1 (centres unmarked) [Example 491]
2. COc1ccc(C2(c3ccc(OC)cc3)NC(=N)N(CC34CC5CC(CC(C5)C3)C4)C2=O)cc1 [Example 276]

1: 8.32 µM; 2: 7.85 µM

I'd like to know its IC50. The compound in question is COc1ccc(C2(C3CCCCC3)NC(=N)N(C3CCOCC3)C2=O)cc1 (centres unmarked) [Example 331]
~10 µM
